- Test system: NCI/ADR-RES
- assay notes: NCI tumour cell line growth inhibition, 48 h
Activity calls are given as the source filed them. Rule as the data show it: active = GI50 up to about 1.1 µM and inactive = higher.
measurement name: GI50

molecule: [N-]=[N+]=CC(=O)OCC(N)C(=O)O (stereo not drawn)
result: 2.95 µM (inactive)

QUERY: Return GI50 measured with NCI/ADR-RES given this molecule: CCCCN1/C(=N/Nc2n[nH]c(=O)c3ccccc23)SCC1c1ccc(Cl)cc1 (stereo not drawn)
RESULT: 8.79 µM (inactive)

QUERY: Given the entry `COc1ccc(-c2[nH]c3c4c(nc5c(c24)C(=O)CC(C)(C)C5)CC(C)(C)C3)cc1` , what GI50 was observed with NCI/ADR-RES?
RESULT: 48.8 µM (inactive)

Origin of the recorded values: ChEMBL document CHEMBL1201862
